Target: Glucocorticoid receptor (Homo sapiens, UniProt P04150)
Sequence (P04150 whole entry): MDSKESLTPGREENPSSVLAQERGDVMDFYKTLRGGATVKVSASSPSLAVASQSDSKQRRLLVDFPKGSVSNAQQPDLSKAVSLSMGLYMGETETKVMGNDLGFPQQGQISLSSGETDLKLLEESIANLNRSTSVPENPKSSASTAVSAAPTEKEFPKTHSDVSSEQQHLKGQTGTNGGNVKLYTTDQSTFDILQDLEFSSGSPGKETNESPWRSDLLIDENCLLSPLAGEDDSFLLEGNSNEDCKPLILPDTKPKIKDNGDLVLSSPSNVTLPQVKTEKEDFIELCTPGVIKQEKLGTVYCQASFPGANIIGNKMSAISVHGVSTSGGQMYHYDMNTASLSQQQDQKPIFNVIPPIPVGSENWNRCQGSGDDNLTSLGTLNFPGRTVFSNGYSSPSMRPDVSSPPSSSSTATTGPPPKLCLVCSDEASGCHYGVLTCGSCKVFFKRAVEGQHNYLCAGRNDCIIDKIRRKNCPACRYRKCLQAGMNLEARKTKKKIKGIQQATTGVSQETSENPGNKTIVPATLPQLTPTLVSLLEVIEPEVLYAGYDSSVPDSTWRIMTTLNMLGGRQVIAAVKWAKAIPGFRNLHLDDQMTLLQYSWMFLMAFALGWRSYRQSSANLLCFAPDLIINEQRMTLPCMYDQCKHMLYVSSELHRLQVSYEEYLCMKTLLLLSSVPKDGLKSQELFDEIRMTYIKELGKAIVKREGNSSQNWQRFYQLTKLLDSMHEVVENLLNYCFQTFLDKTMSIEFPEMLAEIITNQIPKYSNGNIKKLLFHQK
Assay: Transrepression activity at GR in PMA-stimulated human A549 cells assessed as inhibition of AP1 response element-induced luciferase reporter gene activity
Assay type: cell-based
compounds and their reported EC50
Entry rule: numbers only, all in nM.

compound=C[C@]1(C(=O)Nc2nccs2)CC2(C#N)c3ccccc3C1c1ccccc12 recorded_number=837

Enquiry: Give its EC50 value. Item: CC1(C(=O)Nc2nccs2)CC2(Br)c3ccccc3C1c1ccccc12 (stereo not given)
Return: 119

Enquiry: Entry Cc1nc(NC(=O)C2(C)CC3c4ccccc4C2c2ccccc23)sc1C (stereo not given) : reported EC50 = ?
Return: 923

Enquiry: Name the reported EC50 value associated with the compound CC1(C(=O)Nc2nccs2)CC2c3ccccc3C1(C#N)c1ccccc12 (stereo not given)
Return: 874

Enquiry: Request the reported EC50 associated with CC12CC(C)(C(=O)Nc3nccs3)C(c3ccccc31)c1ccccc12 (stereo in doubt; 17a)
Return: 5.3

Enquiry: Which EC50 value is on record for Cc1cnc(NC(=O)C2(C)CC3c4ccccc4C2c2ccccc23)s1 (stereo in doubt; 3) ?
Return: 610

Enquiry: # lookup: EC50 of CC12CC(C)(C(=O)Nc3nncs3)C(c3ccccc31)c1ccccc12 (stereo in doubt; 18)
Return: 16.9

Enquiry: Find the recorded EC50 belonging to CC1(C(=O)Nc2nccs2)CC2c3ccccc3C1c1ccccc12 (stereo not given) and report it.
Return: 268

Enquiry: Any idea what EC50 was measured for CC1(C(=O)Nc2nccs2)CC2(Cl)c3ccccc3C1c1ccccc12 (stereo not given) ?
Return: 229

---

Target: Glucocorticoid receptor (Homo sapiens, UniProt P04150)
Experiment: Transrepression activity at GR in PMA-stimulated human A549 cells assessed as inhibition of AP1 response element-induced luciferase reporter gene activity
Format: cell-based
QUANTITY NAME: pEC50
Field pEC50 (float): negative decimal logarithm of the concentration in molar.

Illustrative cases are given below, each with its answer.
molecule="CC12CC(C)(C(=O)Nc3nccs3)C(c3ccccc31)c1ccccc12 (single isomer, unassigned; isomer B)" system="Glucocorticoid receptor (Homo sapiens, UniProt P04150)" quantity_name=pEC50 recorded_number=6.10
molecule="CC12CC(C)(C(=O)Nc3nncs3)C(c3ccccc31)c1ccccc12 (stereo in doubt; 18b)" system="Glucocorticoid receptor (Homo sapiens, UniProt P04150)" quantity_name=pEC50 recorded_number=5.42
molecule="CC1(C(=O)Nc2nncs2)CC2c3ccccc3C1c1ccccc12 (centres undefined)" system="Glucocorticoid receptor (Homo sapiens, UniProt P04150)" quantity_name=pEC50 recorded_number=6.53
molecule="CC12CC(C)(C(=O)Nc3nccs3)C(c3ccccc31)c1ccccc12 (stereo in doubt; 17)" system="Glucocorticoid receptor (Homo sapiens, UniProt P04150)" quantity_name=pEC50 recorded_number=7.83
molecule="CN(C(=O)C1(C)CC2c3ccccc3C1c1ccccc12)c1nccs1 (centres undefined)" system="Glucocorticoid receptor (Homo sapiens, UniProt P04150)" quantity_name=pEC50 recorded_number=5.91
molecule="CC1(C(=O)Nc2nccs2)CC2c3ccccc3C1([N+](=O)[O-])c1ccccc12 (centres undefined)" system="Glucocorticoid receptor (Homo sapiens, UniProt P04150)" quantity_name=pEC50 recorded_number=5.94

Enquiry: Query: pEC50; subject: C[C@@]1(C(=O)Nc2nccs2)CC2(C#N)c3ccccc3C1c1ccccc12
Return: 6.61

---

This listing pairs compounds with measured log10(EC50).
Biological target: UniProt P04150
Sequence (P04150 whole entry): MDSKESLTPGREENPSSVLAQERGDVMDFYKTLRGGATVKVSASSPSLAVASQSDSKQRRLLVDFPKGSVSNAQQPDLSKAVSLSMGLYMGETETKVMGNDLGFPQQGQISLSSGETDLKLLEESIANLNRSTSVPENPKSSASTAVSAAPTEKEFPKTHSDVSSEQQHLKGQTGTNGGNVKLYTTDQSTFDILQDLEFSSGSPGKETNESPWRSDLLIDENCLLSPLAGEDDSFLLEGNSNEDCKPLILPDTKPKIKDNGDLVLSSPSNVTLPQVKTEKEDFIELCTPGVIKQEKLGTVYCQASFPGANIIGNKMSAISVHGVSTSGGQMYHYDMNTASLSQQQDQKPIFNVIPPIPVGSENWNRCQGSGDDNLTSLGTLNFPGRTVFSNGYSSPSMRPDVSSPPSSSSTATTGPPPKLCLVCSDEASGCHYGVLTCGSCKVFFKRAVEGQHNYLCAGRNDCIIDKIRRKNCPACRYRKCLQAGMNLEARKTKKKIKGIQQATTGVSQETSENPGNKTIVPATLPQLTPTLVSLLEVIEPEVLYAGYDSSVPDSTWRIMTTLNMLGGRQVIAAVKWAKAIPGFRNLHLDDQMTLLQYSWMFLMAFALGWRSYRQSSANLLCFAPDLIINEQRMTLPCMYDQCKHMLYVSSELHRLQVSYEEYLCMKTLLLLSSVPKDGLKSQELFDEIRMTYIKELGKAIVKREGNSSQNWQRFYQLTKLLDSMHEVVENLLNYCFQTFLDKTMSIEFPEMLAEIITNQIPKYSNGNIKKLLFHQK
Assay: Transrepression activity at GR in IL-1-beta-stimulated human A549 cells assessed as inhibition of NF-kappaB-dependent E-selectin transcription by luciferase reporter gene assay
Assay type: cell-based
For clarity, the numbers are log10 values of EC50 expressed in nM.

Look over these answered cases.
compound="CC12CC(C)(C(=O)Nc3nncs3)C(c3ccccc31)c1ccccc12 (single isomer, unassigned; isomer A)" system="UniProt P04150" recorded_number=0.92
compound="CC12CC(C)(C(=O)Nc3nccs3)C(c3ccccc31)c1ccccc12 (stereo in doubt; 17a)" system="UniProt P04150" recorded_number=0.15
compound="CC1(C(=O)Nc2nccs2)CC2(Cl)c3ccccc3C1c1ccccc12 (centres undefined)" system="UniProt P04150" recorded_number=1.09
compound="CC1(C(=O)Nc2nccs2)CC2c3ccccc3C1(C#N)c1ccccc12 (centres undefined)" system="UniProt P04150" recorded_number=2.83

Enquiry: Would you mind telling me what log10(EC50) value was observed for CC1(C(=O)Nc2nccs2)CC2c3ccccc3C1c1ccccc12 (centres undefined) ?
Return: 1.49

---

Biological target: Glucocorticoid receptor (Homo sapiens, UniProt P04150)
Test: Transrepression activity at GR in IL-1-beta-stimulated human A549 cells assessed as inhibition of NF-kappaB-dependent E-selectin transcription by luciferase reporter gene assay
Assay type: cell-based
Listing of entries alongside the reported EC50.

molecule="CC1(C(=O)Nc2nccs2)CC2c3ccccc3C1([N+](=O)[O-])c1ccccc12 (centres undefined)" quantity_name=EC50 result="> 5000 nM"

Enquiry: Entry CC12CC(C)(C(=O)Nc3nccs3)C(c3ccccc31)c1ccccc12 (single isomer, unassigned; isomer B) : reported EC50 = ?
Return: > 5000 nM

Enquiry: What does the data say about its EC50? Entry: CC12CC(C)(C(=O)Nc3nccs3)C(c3ccccc31)c1ccccc12 (stereo in doubt; 17)
Return: 8.3 nM

Enquiry: Bench note: what EC50 did CC12CC(C)(C(=O)Nc3nncs3)C(c3ccccc31)c1ccccc12 (stereo in doubt; 18) show?
Return: 5.2 nM

Enquiry: Query: EC50; subject: CC1(C(=O)Nc2nccs2)CC2([N+](=O)[O-])c3ccccc3C1c1ccccc12 (centres undefined)
Return: > 5000 nM

Enquiry: // lookup EC50 for CC1(C(=O)Nc2nccs2)CC2(C#N)c3ccccc3C1c1ccccc12 (centres undefined)
Return: 426 nM

Enquiry: Item C[C@]1(C(=O)Nc2nccs2)CC2(C#N)c3ccccc3C1c1ccccc12 has what recorded EC50?
Return: > 5000 nM

Enquiry: Fill in: EC50 of C[C@@]1(C(=O)Nc2nccs2)CC2(C#N)c3ccccc3C1c1ccccc12 is ___
Return: 19.4 nM

Enquiry: Which value of EC50 has been reported for CC1(C(=O)Nc2nccs2)CC2(Br)c3ccccc3C1c1ccccc12 (centres undefined) in the records?
Return: 9.9 nM
